ASSAY TARGET: biotinylated wildtype K-Ras·GppNHp (His-Avi-TEV-KRAS (wildtype))
ASSAY: TR-FRET K-Ras(wildtype) + Raf1-RBD
TEST PARAMETERS: chains peptide; modification not given; biotin on the Avi tag (co-expressed BirA)
Ends that are not written are not given here.
MEASUREMENT KIND: IC50

Request: I would be grateful if you could share the reported IC50 for YFVNFRNFRTFRCG (also: cyclic, ring closure not given here) [KD2] .
Response: > 100 µM
